Provenance of the data: patent EP3130589A1

Biological target: TRPV1 human (Homo sapiens, UniProt Q8NER1)
Construct: expressed in transfected cells; host or cells: CHO K1 cells
Sequence (Q8NER1 whole entry): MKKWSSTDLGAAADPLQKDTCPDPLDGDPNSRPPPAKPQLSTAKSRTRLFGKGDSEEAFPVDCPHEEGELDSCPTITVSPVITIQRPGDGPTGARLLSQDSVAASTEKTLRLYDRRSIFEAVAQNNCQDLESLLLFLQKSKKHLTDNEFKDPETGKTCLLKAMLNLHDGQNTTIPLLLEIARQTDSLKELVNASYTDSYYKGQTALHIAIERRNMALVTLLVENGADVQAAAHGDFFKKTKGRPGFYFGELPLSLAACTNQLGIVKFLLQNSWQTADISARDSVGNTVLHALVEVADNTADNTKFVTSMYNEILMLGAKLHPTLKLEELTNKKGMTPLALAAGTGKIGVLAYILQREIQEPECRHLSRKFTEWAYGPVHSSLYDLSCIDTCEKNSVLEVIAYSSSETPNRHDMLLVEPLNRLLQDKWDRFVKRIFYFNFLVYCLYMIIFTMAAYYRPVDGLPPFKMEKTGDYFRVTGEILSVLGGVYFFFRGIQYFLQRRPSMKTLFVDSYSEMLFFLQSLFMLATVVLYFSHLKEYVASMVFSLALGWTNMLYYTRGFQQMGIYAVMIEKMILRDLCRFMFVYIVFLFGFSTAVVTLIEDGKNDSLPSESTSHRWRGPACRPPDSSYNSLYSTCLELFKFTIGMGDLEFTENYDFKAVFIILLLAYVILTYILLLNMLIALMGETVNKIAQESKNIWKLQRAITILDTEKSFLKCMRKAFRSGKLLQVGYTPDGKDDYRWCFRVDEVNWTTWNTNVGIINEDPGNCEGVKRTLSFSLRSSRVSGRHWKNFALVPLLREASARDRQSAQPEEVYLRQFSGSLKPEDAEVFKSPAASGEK
Experiment: Functional testing on the vanilloid receptor 1 (VR1/TRPV1): FLIPR Ca2+ influx assay, inhibition of capsaicin (CAP) stimulation
Type: cell-based
Conditions: functional (f) FLIPR assay, capsaicin (CAP) 100 nM; Ki from IC50 by Cheng-Prusoff equation
readout kind: Ki (nM)
Please respond with the number in nM and leave the unit unwritten.

Recorded Ki, per entry:
{"columns": ["compound", "Ki [nM]"],
 "data": [
  ["CC(C(=O)NCc1ccc(C(F)(F)F)nc1N1CCCC1)c1cn(C)c2ccc(O)cc12 (stereo not shown)", 5],
  ["CC1CCN(c2nc(C(F)(F)F)ccc2CNC(=O)Nc2nc3c([N+](=O)[O-])cccc3s2)CC1", 31.2]
]}

## Task Quick check: Ki on TRPV1 human (Homo sapiens, UniProt Q8NER1), item CCCCNc1nc(C(F)(F)F)ccc1CNC(=O)C(C)c1cn(C)c2ccc(OC)cc12 (stereo not shown) ?
## Result 76.4

## Task Now this one: Cc1cccc(-c2nc(C(F)(F)F)ccc2CNC(=O)C(C)c2cn(C)c3ccc(O)cc23)c1 (stereo not shown)
## Result 1.4

## Task Now this one: CC1CCN(c2nc(C(F)(F)F)ccc2CNC(=O)C(C)c2cn(C)c3ccccc23)CC1 (stereo not shown)
## Result 53

## Task Now this one: CCNc1nc(C(F)(F)F)ccc1CNC(=O)Cc1cn(C)c2ccc(O)cc12
## Result 8.2

## Task Now this one: Cn1cc(CC(=O)NCc2ccc(C(F)(F)F)nc2N2CCOCC2)c2cc(O)ccc21
## Result 16.5
